Where do the numbers come from? From paper PMC6880868.

Kd overview
# assay.target: STAT1 (Homo sapiens)
# Sequence (P42224 132-713): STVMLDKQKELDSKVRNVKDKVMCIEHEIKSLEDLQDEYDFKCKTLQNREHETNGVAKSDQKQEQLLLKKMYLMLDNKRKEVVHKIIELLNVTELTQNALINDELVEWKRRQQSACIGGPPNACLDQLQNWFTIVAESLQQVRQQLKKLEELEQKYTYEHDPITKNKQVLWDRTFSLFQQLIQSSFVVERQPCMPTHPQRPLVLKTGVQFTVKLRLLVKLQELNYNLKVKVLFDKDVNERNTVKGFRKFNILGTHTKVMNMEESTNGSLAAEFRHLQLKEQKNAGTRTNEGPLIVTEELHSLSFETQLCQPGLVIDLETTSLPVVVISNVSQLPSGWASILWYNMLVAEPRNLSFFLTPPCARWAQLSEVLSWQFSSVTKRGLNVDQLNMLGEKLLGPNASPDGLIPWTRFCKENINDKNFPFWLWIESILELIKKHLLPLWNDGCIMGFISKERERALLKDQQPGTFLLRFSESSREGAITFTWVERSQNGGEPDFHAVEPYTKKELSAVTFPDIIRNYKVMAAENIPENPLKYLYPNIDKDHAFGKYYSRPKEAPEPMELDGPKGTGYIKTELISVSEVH

molecule: CC(=O)N1CC[C@H]2CC[C@@H](C(=O)N[C@@H](CCC(N)=O)C(=O)NC(c3ccccc3)c3ccccc3)N2C(=O)[C@@H](NC(=O)c2cc3cc(C(F)(F)P(=O)(O)O)ccc3[nH]2)C1
Kd: 1000 to 2000 nM

Now look at this entry.
STAT1 (Homo sapiens) / Kd / NC(=O)CC[C@H](NC(=O)[C@@H]1CC[C@@H]2CCN(C(=O)CCCCCC#Cc3cccc4c3CN(C3CCC(=O)NC3=O)C4=O)C[C@H](NC(=O)c3cc4cc(C(F)(F)P(=O)(O)O)ccc4[nH]3)C(=O)N21)C(=O)NC(c1ccccc1)c1ccccc1 (some centres unmarked) : value?
1000 to 2000 nM
